Test system: 786-0 complex spheroids with HUVEC/MSC, growth % test/control
Assay: Anticancer human tumor 786-0 cell line growth inhibition [AhR];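 also: compound exposure lasted seven days before the read-out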
Settings: second compound 3.16 µM; first compound 3.16 µM; stronger effect = lower value
Listed molecules paired with reported viability, T/C
Lab book: enter the figure in %, no units written.

# count of solved cases: 2
{"molecule": "COc1cccc2c1C(=O)c1c(O)c3c(c(O)c1C2=O)CC(O)(C(=O)CO)CC3OC1CC(N)C(O)C(C)O1 (stereo not drawn) + CC(CO)NC(=O)c1cc(-c2ccc(Cl)cc2)nn(-c2cnn(C)c2)c1=O", "viability, T/C [%]": 0.34}
{"molecule": "COc1cc(Nc2ncc3c(n2)-c2ccc(Cl)cc2C(c2c(F)cccc2OC)=NC3)ccc1C(=O)O + Cc1cncc(-c2nc(NCCc3c[nH]c4ccccc34)c3ncn(C(C)C)c3n2)c1", "viability, T/C [%]": 70.1}

Next item in the queue.
If you can, please state the reported viability, T/C value of CC(C)c1c(-c2ccccc2)nc2c(C#N)c[nH]n2c1=O + CC(CO)NC(=O)c1cc(-c2ccc(Cl)cc2)nn(-c2cnn(C)c2)c1=O .
106

====

System: 786-0 complex spheroids with HUVEC/MSC, growth % test/control
Test: Anticancer human tumor 786-0 cell line growth inhibition [AhR];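 also: compound exposure lasted seven days before the read-out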
Details: curve of first compound; second compound 1 µM
readoutName: IC50 (µM)
Give just the numeric value; µM need not be written.

{"compound": "CC1COCCN1c1cc(-c2ccnn2C)c2ccnc(-c3ccn[nH]3)c2n1 (stereo not drawn) + Cc1cncc(-c2nc(NCCc3c[nH]c4ccccc34)c3ncn(C(C)C)c3n2)c1", "IC50, µM": 0.15}

Pending compound:
Quick check: IC50 of O=C(C=Cc1cccc(S(=O)(=O)Nc2ccccc2)c1)NO + Cc1cncc(-c2nc(NCCc3c[nH]c4ccccc34)c3ncn(C(C)C)c3n2)c1 ?
6.53

====

Measured viability, T/C, listed per entry.
System: 786-0 complex spheroids with HUVEC/MSC, growth % test/control
Experiment: Anticancer human tumor 786-0 cell line growth inhibition [AhR];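 also: compound exposure lasted seven days before the read-out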
Settings: second compound 0.316 µM; first compound 0.00949 µM; stronger effect = lower value
Express it in %; write the number only.

{"molecule": "CC(C)CC(NC(=O)C(Cc1ccccc1)NC(=O)c1cnccn1)B(O)O (stereo unspecified) + Cc1ccccc1N=Nc1ccc(NC(=O)c2ccnn2C)c(C)c1", "unitString": "%", "result": 98.6}

Value lookup for viability, T/C; key = O=C(C=Cn1cnc(-c2cc(C(F)(F)F)cc(C(F)(F)F)c2)n1)NNc1cnccn1 + Cc1ccccc1N=Nc1ccc(NC(=O)c2ccnn2C)c(C)c1
109

Check Nc1ncn(C2CC(O)C(CO)S2)c(=O)n1 (stereo unspecified) + Cc1cncc(-c2nc(NCCc3c[nH]c4ccccc34)c3ncn(C(C)C)c3n2)c1 too.
121

Cool, now Nc1ncn(C2CC(O)C(CO)S2)c(=O)n1 (stereo unspecified) + Cc1ccccc1N=Nc1ccc(NC(=O)c2ccnn2C)c(C)c1
103

Next entry: CCN(c1cc(-c2ccc(CN3CCOCC3)cc2)cc(C(=O)NCc2c(C)cc(C)[nH]c2=O)c1C)C1CCOCC1 + Cc1cncc(-c2nc(NCCc3c[nH]c4ccccc34)c3ncn(C(C)C)c3n2)c1
125

Record: CCc1c2c(nc3ccc(O)cc13)-c1cc3c(c(=O)n1C2)COC(=O)[C@]3(O)CC + Cc1ccccc1N=Nc1ccc(NC(=O)c2ccnn2C)c(C)c1
19.7

====

System: 786-0 complex spheroids with HUVEC/MSC, growth % test/control
Experiment: Anticancer human tumor 786-0 cell line growth inhibition [AhR];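 also: compound exposure lasted seven days before the read-out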
Settings: second compound 0.1 µM; first compound 0.00316 µM; stronger effect = lower value
readoutName: viability, T/C (%)
Enter your answer as a number in %; do not include the unit.

Solved entries (count: 5):
{"molecule": "CC[C@@]1(O)C(=O)OCc2c1cc1n(c2=O)Cc2cc3c(CN(C)C)c(O)ccc3nc2-1 + Cc1ccccc1N=Nc1ccc(NC(=O)c2ccnn2C)c(C)c1", "result": 104}
{"molecule": "CC1COCCN1c1cc(-c2ccnn2C)c2ccnc(-c3ccn[nH]3)c2n1 (configuration not stated) + Cc1cncc(-c2nc(NCCc3c[nH]c4ccccc34)c3ncn(C(C)C)c3n2)c1", "result": 106}
{"molecule": "Nc1ncn(C2CC(O)C(CO)O2)c(=O)n1 (configuration not stated) + Cc1ccccc1N=Nc1ccc(NC(=O)c2ccnn2C)c(C)c1", "result": 103}
{"molecule": "Nc1ncn(C2CC(O)C(CO)O2)c(=O)n1 (configuration not stated) + CC(CO)NC(=O)c1cc(-c2ccc(Cl)cc2)nn(-c2cnn(C)c2)c1=O", "result": 96.2}
{"molecule": "Cn1ncnc1C1c2n[nH]c(=O)c3cc(F)cc(c23)NC1c1ccc(F)cc1 (configuration not stated) + Cc1ccccc1N=Nc1ccc(NC(=O)c2ccnn2C)c(C)c1", "result": 107}

Which viability, T/C is listed for Cn1ncnc1C1c2n[nH]c(=O)c3cc(F)cc(c23)NC1c1ccc(F)cc1 (configuration not stated) + Cc1cncc(-c2nc(NCCc3c[nH]c4ccccc34)c3ncn(C(C)C)c3n2)c1 ?
120

For Cn1ncnc1C1c2n[nH]c(=O)c3cc(F)cc(c23)NC1c1ccc(F)cc1 (configuration not stated) + CC(CO)NC(=O)c1cc(-c2ccc(Cl)cc2)nn(-c2cnn(C)c2)c1=O then?
95

Also CC1COCCN1c1cc(-c2ccnn2C)c2ccnc(-c3ccn[nH]3)c2n1 (configuration not stated) + CC(CO)NC(=O)c1cc(-c2ccc(Cl)cc2)nn(-c2cnn(C)c2)c1=O ?
100

Next molecule: CC[C@@]1(O)C(=O)OCc2c1cc1n(c2=O)Cc2cc3c(CN(C)C)c(O)ccc3nc2-1 + CC(CO)NC(=O)c1cc(-c2ccc(Cl)cc2)nn(-c2cnn(C)c2)c1=O
111

Likewise for Nc1ncn(C2CC(O)C(CO)O2)c(=O)n1 (configuration not stated) + Cc1cncc(-c2nc(NCCc3c[nH]c4ccccc34)c3ncn(C(C)C)c3n2)c1 ?
123

Moving on to CC[C@@]1(O)C(=O)OCc2c1cc1n(c2=O)Cc2cc3c(CN(C)C)c(O)ccc3nc2-1 + Cc1cncc(-c2nc(NCCc3c[nH]c4ccccc34)c3ncn(C(C)C)c3n2)c1
117

Same again, this time with CC1COCCN1c1cc(-c2ccnn2C)c2ccnc(-c3ccn[nH]3)c2n1 (configuration not stated) + Cc1ccccc1N=Nc1ccc(NC(=O)c2ccnn2C)c(C)c1
97.6

====

Test system: 786-0 complex spheroids with HUVEC/MSC, growth % test/control
Assay: Anticancer human tumor 786-0 cell line growth inhibition [AhR];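 also: compound exposure lasted seven days before the read-out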
Settings: curve of first compound; second compound 1 µM
pIC50: −log10 of the molar value.
readoutName: pIC50

Solved entries:
{"molecule": "Nc1ccn(C2OC(CO)C(O)C2(F)F)c(=O)n1 (stereo unspecified) + Cc1ccccc1N=Nc1ccc(NC(=O)c2ccnn2C)c(C)c1", "pIC50": "> 7.50"}
{"molecule": "CC1COCCN1c1cc(-c2ccnn2C)c2ccnc(-c3ccn[nH]3)c2n1 (stereo unspecified) + CC(CO)NC(=O)c1cc(-c2ccc(Cl)cc2)nn(-c2cnn(C)c2)c1=O", "pIC50": 7.01}
{"molecule": "CC(C)c1c(-c2ccccc2)nc2c(C#N)c[nH]n2c1=O + Cc1cncc(-c2nc(NCCc3c[nH]c4ccccc34)c3ncn(C(C)C)c3n2)c1", "pIC50": "< 5.00"}
{"molecule": "CC1(C)CCC(CN2CCN(c3ccc(C(=O)NS(=O)(=O)c4ccc(NCC5CCOCC5)c([N+](=O)[O-])c4)c(Oc4cnc5[nH]ccc5c4)c3)CC2)=C(c2ccc(Cl)cc2)C1 + CC(CO)NC(=O)c1cc(-c2ccc(Cl)cc2)nn(-c2cnn(C)c2)c1=O", "pIC50": "< 5.00"}
{"molecule": "CC(C)c1c(-c2ccccc2)nc2c(C#N)c[nH]n2c1=O + Cc1ccccc1N=Nc1ccc(NC(=O)c2ccnn2C)c(C)c1", "pIC50": "< 5.00"}

Switching to the query record.
For the molecule COc1cc(Nc2ncc3c(n2)-c2ccc(Cl)cc2C(c2c(F)cccc2OC)=NC3)ccc1C(=O)O + CC(CO)NC(=O)c1cc(-c2ccc(Cl)cc2)nn(-c2cnn(C)c2)c1=O , what pIC50 is on record?
5.59

====

Tested on: 786-0 complex spheroids with HUVEC/MSC, growth % test/control
Assay: Anticancer human tumor 786-0 cell line growth inhibition [AhR];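 also: compound exposure lasted seven days before the read-out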
Conditions: curve of first compound; second compound 1 µM
Binary label based on IC50 with cut-off 200 nM: below gives fulfilled, not below gives not fulfilled.

A selection of reference data follows.
{"molecule": "CC(C)c1c(-c2ccccc2)nc2c(C#N)c[nH]n2c1=O + CC(CO)NC(=O)c1cc(-c2ccc(Cl)cc2)nn(-c2cnn(C)c2)c1=O", "className": "not fulfilled"}
{"molecule": "CC1COCCN1c1cc(-c2ccnn2C)c2ccnc(-c3ccn[nH]3)c2n1 (centres undefined) + Cc1ccccc1N=Nc1ccc(NC(=O)c2ccnn2C)c(C)c1", "className": "not fulfilled"}
{"molecule": "O=C(C=Cn1cnc(-c2cc(C(F)(F)F)cc(C(F)(F)F)c2)n1)NNc1cnccn1 + CC(CO)NC(=O)c1cc(-c2ccc(Cl)cc2)nn(-c2cnn(C)c2)c1=O", "className": "not fulfilled"}
{"molecule": "O=C(c1cc(Cc2n[nH]c(=O)c3ccccc23)ccc1F)N1CCN(C(=O)C2CC2)CC1 + Cc1cncc(-c2nc(NCCc3c[nH]c4ccccc34)c3ncn(C(C)C)c3n2)c1", "className": "not fulfilled"}
{"molecule": "COc1ccc([C@@H](O)c2cc(-c3ncnc4cc(N5CCOCC5)ccc34)c(F)cc2Cl)nn1 + CC(CO)NC(=O)c1cc(-c2ccc(Cl)cc2)nn(-c2cnn(C)c2)c1=O", "className": "not fulfilled"}
{"molecule": "CCN(c1cc(-c2ccc(CN3CCOCC3)cc2)cc(C(=O)NCc2c(C)cc(C)[nH]c2=O)c1C)C1CCOCC1 + Cc1cncc(-c2nc(NCCc3c[nH]c4ccccc34)c3ncn(C(C)C)c3n2)c1", "className": "not fulfilled"}
{"molecule": "Nc1ccn(C2OC(CO)C(O)C2(F)F)c(=O)n1 (centres undefined) + CC(CO)NC(=O)c1cc(-c2ccc(Cl)cc2)nn(-c2cnn(C)c2)c1=O", "className": "fulfilled"}
{"molecule": "Nc1ncn(C2CC(O)C(CO)S2)c(=O)n1 (centres undefined) + Cc1cncc(-c2nc(NCCc3c[nH]c4ccccc34)c3ncn(C(C)C)c3n2)c1", "className": "not fulfilled"}

Take the molecule Nc1ncn(C2CC(O)C(CO)O2)c(=O)n1 (centres undefined) + Cc1cncc(-c2nc(NCCc3c[nH]c4ccccc34)c3ncn(C(C)C)c3n2)c1 and say whether its IC50 is less than 200 nM.
not fulfilled

Please give the result for COc1cccc2c1C(=O)c1c(O)c3c(c(O)c1C2=O)CC(O)(C(=O)CO)CC3OC1CC(N)C(O)C(C)O1 (centres undefined) + Cc1cncc(-c2nc(NCCc3c[nH]c4ccccc34)c3ncn(C(C)C)c3n2)c1 too.
fulfilled

Input Nc1ncn(C2CC(O)C(CO)O2)c(=O)n1 (centres undefined) + Cc1ccccc1N=Nc1ccc(NC(=O)c2ccnn2C)c(C)c1
not fulfilled

Now consider NS(=O)(=O)OCC1CC(n2ccc3c(NC4CCc5ccccc54)ncnc32)CC1O (centres undefined) + Cc1ccccc1N=Nc1ccc(NC(=O)c2ccnn2C)c(C)c1 .
not fulfilled

Lookup CC(C)CC(NC(=O)C(Cc1ccccc1)NC(=O)c1cnccn1)B(O)O (centres undefined) + CC(CO)NC(=O)c1cc(-c2ccc(Cl)cc2)nn(-c2cnn(C)c2)c1=O
fulfilled

Also, CCc1c2c(nc3ccc(O)cc13)-c1cc3c(c(=O)n1C2)COC(=O)[C@]3(O)CC + CC(CO)NC(=O)c1cc(-c2ccc(Cl)cc2)nn(-c2cnn(C)c2)c1=O please.
fulfilled

Would you kindly repeat that for NS(=O)(=O)OCC1CC(n2ccc3c(NC4CCc5ccccc54)ncnc32)CC1O (centres undefined) + CC(CO)NC(=O)c1cc(-c2ccc(Cl)cc2)nn(-c2cnn(C)c2)c1=O ?
not fulfilled

What about CC(C)CC(NC(=O)C(Cc1ccccc1)NC(=O)c1cnccn1)B(O)O (centres undefined) + Cc1ccccc1N=Nc1ccc(NC(=O)c2ccnn2C)c(C)c1 ?
fulfilled

Thanks! And Nc1ccn(C2OC(CO)C(O)C2(F)F)c(=O)n1 (centres undefined) + Cc1cncc(-c2nc(NCCc3c[nH]c4ccccc34)c3ncn(C(C)C)c3n2)c1 ?
fulfilled

Follow-up entry: NS(=O)(=O)OCC1CC(n2ccc3c(NC4CCc5ccccc54)ncnc32)CC1O (centres undefined) + Cc1cncc(-c2nc(NCCc3c[nH]c4ccccc34)c3ncn(C(C)C)c3n2)c1
not fulfilled

CC1(C)CCC(CN2CCN(c3ccc(C(=O)NS(=O)(=O)c4ccc(NCC5CCOCC5)c([N+](=O)[O-])c4)c(Oc4cnc5[nH]ccc5c4)c3)CC2)=C(c2ccc(Cl)cc2)C1 + Cc1cncc(-c2nc(NCCc3c[nH]c4ccccc34)c3ncn(C(C)C)c3n2)c1 , same question.
not fulfilled

Check CC[C@@]1(O)C(=O)OCc2c1cc1n(c2=O)Cc2cc3c(CN(C)C)c(O)ccc3nc2-1 + Cc1ccccc1N=Nc1ccc(NC(=O)c2ccnn2C)c(C)c1 too.
fulfilled

And then CCN(c1cc(-c2ccc(CN3CCOCC3)cc2)cc(C(=O)NCc2c(C)cc(C)[nH]c2=O)c1C)C1CCOCC1 + Cc1ccccc1N=Nc1ccc(NC(=O)c2ccnn2C)c(C)c1 , what is it?
not fulfilled

Then this molecule: COc1cc(Nc2ncc3c(n2)-c2ccc(Cl)cc2C(c2c(F)cccc2OC)=NC3)ccc1C(=O)O + Cc1cncc(-c2nc(NCCc3c[nH]c4ccccc34)c3ncn(C(C)C)c3n2)c1
not fulfilled

Next up: O=C(C=Cc1cccc(S(=O)(=O)Nc2ccccc2)c1)NO + Cc1ccccc1N=Nc1ccc(NC(=O)c2ccnn2C)c(C)c1
not fulfilled
